Target: TYK2 (Homo sapiens)
Sequence (P29597 whole entry): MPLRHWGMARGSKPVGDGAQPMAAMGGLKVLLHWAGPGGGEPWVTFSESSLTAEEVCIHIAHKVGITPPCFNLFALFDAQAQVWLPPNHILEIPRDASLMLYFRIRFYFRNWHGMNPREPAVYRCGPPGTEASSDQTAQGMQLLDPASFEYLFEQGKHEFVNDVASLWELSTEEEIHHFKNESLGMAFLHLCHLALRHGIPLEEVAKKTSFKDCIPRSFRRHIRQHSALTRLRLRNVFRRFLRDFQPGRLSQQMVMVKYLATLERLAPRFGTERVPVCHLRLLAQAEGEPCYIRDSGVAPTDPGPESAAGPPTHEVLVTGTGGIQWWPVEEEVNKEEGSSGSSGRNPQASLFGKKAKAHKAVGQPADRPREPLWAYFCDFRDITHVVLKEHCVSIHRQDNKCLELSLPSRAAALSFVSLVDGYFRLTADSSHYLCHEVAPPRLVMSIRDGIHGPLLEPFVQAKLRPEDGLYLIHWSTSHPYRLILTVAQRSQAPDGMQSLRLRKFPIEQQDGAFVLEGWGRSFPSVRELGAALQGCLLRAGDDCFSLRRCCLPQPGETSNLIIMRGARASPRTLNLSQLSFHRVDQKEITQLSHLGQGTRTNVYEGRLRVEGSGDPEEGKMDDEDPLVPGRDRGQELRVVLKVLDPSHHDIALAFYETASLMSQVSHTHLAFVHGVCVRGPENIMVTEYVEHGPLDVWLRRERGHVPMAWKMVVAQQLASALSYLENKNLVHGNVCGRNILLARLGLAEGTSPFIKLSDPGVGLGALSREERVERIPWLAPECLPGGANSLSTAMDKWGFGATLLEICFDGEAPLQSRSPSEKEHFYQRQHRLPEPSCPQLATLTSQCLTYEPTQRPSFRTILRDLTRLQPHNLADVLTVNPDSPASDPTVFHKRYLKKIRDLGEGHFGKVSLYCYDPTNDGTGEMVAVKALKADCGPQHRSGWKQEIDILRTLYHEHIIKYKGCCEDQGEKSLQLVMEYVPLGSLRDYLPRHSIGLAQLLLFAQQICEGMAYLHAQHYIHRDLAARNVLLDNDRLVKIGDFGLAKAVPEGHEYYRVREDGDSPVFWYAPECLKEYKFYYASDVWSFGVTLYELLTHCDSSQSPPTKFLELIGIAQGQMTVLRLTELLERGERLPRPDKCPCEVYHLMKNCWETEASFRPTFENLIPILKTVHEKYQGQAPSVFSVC
Assay: TYK2 degradation MSD assay in EBV-B cells
Assay type: cell-based
Parameters: endogenous in cells; host or cells: EBV-B cells
Settings: 4 to 24 hours incubation, read-out: TYK2 MSD DC50 rating in EBV-B
Protocol: Example 3. TYK2 Degradation MSD Assay in EBV-B, OCI-LY10, and Human PBMC Cells Degradation of TYK2 in cells was quantitatively measured using Meso Scale Discovery (MSD) technology. […] The assay plates were then incubated at room temperature for 1 hour, washed 3 times with 150 μl/well TBST buffer, and 150 μl/well MSD reading buffer (MSD, R92TC-2) were added. The plates were then analyzed by an MSD reader. […]
Reported DC50 values follow for various compounds

>  <compound>
CNc1cc(Nc2cccn(-c3ccc(C(=O)N4CCC5(CN(CC#Cc6ccc7c(c6)n(C)c(=O)n7C6CCC(=O)NC6=O)C5)C4)cn3)c2=O)nn2c(C(=O)N[C@@H]3C[C@@H]3F)cnc12 (stereo partly drawn) [Example K416]

>  <assayEndpoint>
DC50

>  <reported>
> 100 nM

$$$$

Query for TYK2 (Homo sapiens): what DC50 does the record show for CNc1cc(Nc2cccn(C3CCN(C(=O)N(C)CC4CCN(c5ccc6c(c5)n(C)c(=O)n6C5CCC(=O)NC5=O)CC4)CC3)c2=O)nn2c(C(=O)N[C@@H]3C[C@@H]3F)cnc12 (stereo partly drawn) [Example K398] ? < 1 nM

For CCNC(=O)c1cnc2c(NC)cc(Nc3cccc(-c4ccc(CN5CCN(c6ccc(-c7ccc8c(c7)n(C)c(=O)n8C7CCC(=O)NC7=O)cc6)CC5)cn4)c3OC)nn12 (stereo not drawn) [Example K526] then? > 100 nM
